system tested: Rac GTPase-activating protein 1 (Homo sapiens)
protocol summary: blockers of MgcRacGAP-driven Rac1 GTP hydrolysis – biochemical, ADP Hunter fluorescence, primary and confirmatory, confirmation (AID 624330);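 also: fluorescence reports GDP produced by GAP-driven GTP hydrolysis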
experimental context: MgcRacGAP-stimulated Rac1 GTP hydrolysis, at 30 µM, hits give high values, GST-tagged Rac1 F28L mutant substrate
Screen size: about 340,000 compounds; about 2,100 (0.62%) were called active. A selection follows. Results with a measured potency or affinity are listed apart.
observable: inhibition (%)
Please give a number only; it is taken to be in %.

[
  {
    "compound": "Cc1ccsc1/C=C(\\C#N)C(=O)NCc1ccco1",
    "observable": "inhibition",
    "scale unit": "%",
    "endpoint result": 2.06
  },
  {
    "compound": "COc1ccc(NC(=O)Cc2ccsc2)cc1S(=O)(=O)N1CCOCC1",
    "observable": "inhibition",
    "scale unit": "%",
    "endpoint result": -4.48
  },
  {
    "compound": "Brc1ccc2c(c1)OCCOCCOCCOCCOCCO2",
    "observable": "inhibition",
    "scale unit": "%",
    "endpoint result": 8.26
  },
  {
    "compound": "COc1cccc(CN2CC(C(=O)NC3CCCCCC3)CCC2=O)c1 (stereo unspecified)",
    "observable": "inhibition",
    "scale unit": "%",
    "endpoint result": 2.79
  },
  {
    "compound": "Cc1c(N2CCCCC2)[nH]c2ccccc12",
    "observable": "inhibition",
    "scale unit": "%",
    "endpoint result": 8.41
  }
]

Write down the reported inhibition (system: Rac GTPase-activating protein 1 (Homo sapiens)) of N#C/C(=C\c1ccc(N2CCOCC2)c([N+](=O)[O-])c1)c1nc2ccccc2[nH]1
1.39

Write down the reported inhibition (system: Rac GTPase-activating protein 1 (Homo sapiens)) of COc1cc(NC(=O)c2cccc(F)c2)cc(OC)c1OC
8.45

Write down the reported inhibition (system: Rac GTPase-activating protein 1 (Homo sapiens)) of COCCN(Cc1nc(C2(c3ccc(C)cc3)CCCC2)no1)C(C)C
-3.53

Write down the reported inhibition (system: Rac GTPase-activating protein 1 (Homo sapiens)) of O=C(COC(=O)CC1CC2CCC1C2)Nc1ccc(Cl)c(S(=O)(=O)N2CCOCC2)c1 (stereo unspecified)
6.02

Write down the reported inhibition (system: Rac GTPase-activating protein 1 (Homo sapiens)) of CSc1nnc(-c2nnc(SC)n2-c2ccccc2)n1-c1ccccc1
5.06

Write down the reported inhibition (system: Rac GTPase-activating protein 1 (Homo sapiens)) of N#C/C(=C\c1ccc(Sc2ccccc2)o1)c1nc2ccccc2[nH]1
11.4

Write down the reported inhibition (system: Rac GTPase-activating protein 1 (Homo sapiens)) of Cc1cccc(Oc2nc(-c3ccccn3)nc3ccccc23)c1
11.2

Write down the reported inhibition (system: Rac GTPase-activating protein 1 (Homo sapiens)) of CC(C)(C)NC(=O)CN1C(=O)/C(=C/c2ccccc2)SC1=S
9.16

Write down the reported inhibition (system: Rac GTPase-activating protein 1 (Homo sapiens)) of C#CCOCCOCCOCCNc1nc(N2CCN(C(=O)[C@H]([C@@H](C)CC)n3cc(CCCN=C(N)N)nn3)CC2)nc(N2CCN(C(=O)[C@H](CCCCN)n3cc(CCC(=O)O)nn3)CC2)n1
-4.54

Taken from PubChem BioAssay AID624330.
